target: UniProt:P45452; experiment: MMP-13 inhibition (thiopeptide or fluorescent peptide substrate); type: biochemical; conditions: read-out: MMP-13 IC50
I'd appreciate it if you marked entries True when IC50 is lower than 20 nM and False when it is not.

// below: answered molecules
CC#CCOc1ccc(S(=O)(=O)N(C)C(C(=O)NO)c2ccc(OCCCNC(=O)Nc3ccccc3)cc2)cc1 (centres unmarked); True
CC#CCOc1ccc(S(=O)(=O)N(C)C(C(=O)NO)C2CCCCC2)cc1 (centres unmarked); True
CC#CCOc1ccc(S(=O)(=O)N[C@@H](C(=O)NO)[C@@H](C)CC)cc1; False

I'd appreciate it if you could check whether CC#CCOc1ccc(S(=O)(=O)N2CCN(Cc3ccc(Br)cc3)CC2C(=O)NO)cc1 (centres unmarked) has IC50 smaller than 20 nM.
False

I'd appreciate it if you could check whether CC#CCOc1ccc(S(=O)(=O)N(CCCN(CC)CC)C(C(=O)NO)C(C)C)cc1 (centres unmarked) has IC50 smaller than 20 nM.
False

I'd appreciate it if you could check whether CC#CCOc1ccc(S(=O)(=O)NC(C(=O)NO)c2ccc(OCCN3CCOCC3)cc2)cc1 (centres unmarked) has IC50 smaller than 20 nM.
False

I'd appreciate it if you could check whether CC#CCOc1ccc(S(=O)(=O)N2CCN(C(=O)C3(C)COC(C)(C)OC3)CC2C(=O)NO)cc1 (centres unmarked) has IC50 smaller than 20 nM.
False

I'd appreciate it if you could check whether CC#CCOc1ccc(S(=O)(=O)N(C)C(C(=O)NO)c2ccc(OCCN(C)C)cc2)cc1 (centres unmarked) has IC50 smaller than 20 nM.
True

I'd appreciate it if you could check whether CC#CCOc1ccc(S(=O)(=O)N(C)C(C(=O)NO)c2ccc(OCCCNC(=O)OCC)cc2)cc1 (centres unmarked) has IC50 smaller than 20 nM.
False
